tested on: XF498; assay: NCI tumour cell line growth inhibition, 48 h
The source made the active and inactive calls. Cut-off read from the data, not from the text of the source: active = GI50 up to about 1.1 µM and inactive = higher.
Pick from true (active), false (inactive) when you respond.

Worked cases, answers included:
MOLECULE: O=C(CCc1nnc2s/c(=C\c3ccc([N+](=O)[O-])cc3)c(=O)n12)Nc1ccc(Cl)c(Cl)c1
TESTED_SYSTEM: XF498
DISCRETE_LABEL: false

MOLECULE: N[C@H](C(=O)O)[C@H](Cl)CC(=O)O
TESTED_SYSTEM: XF498
DISCRETE_LABEL: false

MOLECULE: Nc1nc(N)nc(-c2ccccc2NS(=O)(=O)c2ccc([N+](=O)[O-])cc2)n1
TESTED_SYSTEM: XF498
DISCRETE_LABEL: false

Recorded test call requested for CCC1=C(CC2NCCc3ccccc32)CC2c3cc(OC)c(OC)cc3CCN2C1 (stereo unspecified)
true

Recorded test call requested for C[C@]12CCC(=O)C=C1CC[C@@H]1[C@@H]2[C@@H](O)C[C@@]2(C)[C@H]1CC[C@]2(O)C(=O)COC(=O)COCC(=O)O
false

Recorded test call requested for CC(=O)Oc1c(OC(C)=O)c(-c2ccc(O)c(O)c2)c(O)c(O)c1-c1ccc(O)cc1
false

Recorded test call requested for O=C1C=CC(=O)c2c1ccc1c3ccccc3n(-c3ccccc3)c21
true

Recorded test call requested for COC(=O)C1C(OCc2ccccc2)C2CCC1(OC)C=C2C (stereo unspecified)
false

Recorded test call requested for COC(=O)C1CCC2(CC1)NC(=O)NC2=O (stereo unspecified)
false

Recorded test call requested for O=C(CCBr)N1CCN(C(=O)CCBr)CC1
false

Recorded test call requested for FC(F)(F)C1(Cl)C(c2ccccc2)=C1c1ccccc1
false

Recorded test call requested for Cc1cc(N(CC(C)Br)CC(C)Br)ccc1/N=N/c1ccccc1C(=O)O (stereo unspecified)
false

Recorded test call requested for CCOC(=O)C(C)OC(=O)c1ccc(C)cc1 (stereo unspecified)
false

Recorded test call requested for COC(=O)/C(=C1\OC(=O)C(c2ccc(Cl)cc2)=C1O)c1ccc(Cl)cc1
false

Recorded test call requested for O=C(C/C(CCC(=O)N(Cc1ccccc1)Cc1ccccc1)=N/Nc1ccc([N+](=O)[O-])cc1[N+](=O)[O-])c1ccccc1
false

Recorded test call requested for CCN(CC)CCCNC(=O)c1ccccc1Nc1c(Cl)cccc1Cl
false

Recorded test call requested for O=c1c2ccccc2n2nnc3ccc(NCCNCCO)c1c32
false

Recorded test call requested for COC(=O)N/N=C(\C)C(CN(C)C)C(c1ccccc1)c1c(O)c2ccccc2oc1=O (stereo unspecified)
false

Recorded test call requested for C#CCOCn1cnc2ncnc(N)c21
false

Recorded test call requested for CS(=O)(=O)CSCSSCS(C)(=O)=O
false

Recorded test call requested for COc1cc2c(cc1OC)-c1c3cc(O)ccc3nn[n+]1CC2
false

src = ChEMBL document CHEMBL1201862
